test: method code SF, from DOI: 10.1021/jm101405t, PMID: 21319751; conditions: pH 7.4
Collected logD values appear next to each entry.
Number, no unit, nothing else.

Compound structure | logD
OCCc1ccc(OCc2cccc(-c3cccs3)c2)cc1 | 3.22
OCCc1ccc(OCc2ccccc2Oc2ccccc2)cc1 | 3.32

Note to self: logD recorded for OCCc1ccc(OCc2cccc(-c3ccccn3)c2)cc1 was 1.94
